- assayMethodText: viability loss with induced miR-34 in A549 – imaging, A549 dox-inducible miR-34, nuclei and caspase counts, primary screen (AID 1347080); also: test concentration not given here
- conditionSummary: A549 miR-34 inducible, Hoechst nuclei count, 48 h; measured here: relative caspase fold change +Dox/-Dox
# fold change >= 0.9 gives 1, anything below gives -1

Worked examples, 5 molecules total:
smilesCode: COc1ccc(Cn2ccc3ccc(C(=O)NO)cc32)cc1
label: 1
//
smilesCode: CC(=O)c1ncc([C@@H](O)[C@H](O)[C@H](O)CO)[nH]1
label: 1
//
smilesCode: CC(C)(C)c1cc(NC(=O)Nc2ccc(-c3cn4c(n3)sc3cc(OCCN5CCOCC5)ccc34)cc2)no1
label: -1
//
smilesCode: CCCCC[C@H](O)/C=C/[C@H]1C(=O)C[C@H](O)[C@@H]1C/C=C\CCCC(=O)NC(CO)CO
label: 1
//
smilesCode: O=C(c1ccc(C(=O)N2CCC(N3CCCC3)CC2)c(Nc2ccccc2)c1)N1CCC(N2CCCC2)CC1
label: 1

## Task Assess whether reported fold change for CCCCCCCCCCCCCCCC(=O)N[C@H](C)CO sits at 0.9 or higher.
## Result 1

## Task Assess whether reported fold change for CCCOc1ccc(Br)cc1-c1cc(-c2ccc(Cl)cc2)[nH]c1-c1ccncc1 sits at 0.9 or higher.
## Result 1

## Task Assess whether reported fold change for COc1cc(OC2CCN(C)CC2)ccc1Nc1ncc2c(n1)n(C1CCCC1)c(=O)n2C sits at 0.9 or higher.
## Result -1

## Task Assess whether reported fold change for CCCCC[C@H](O)/C=C/[C@@H]1[C@@H](CCCCCCC(=O)O)[C@H](O)C[C@@H]1O sits at 0.9 or higher.
## Result 1

## Task Assess whether reported fold change for O=c1[nH]ccc2c(S(=O)(=O)N3CCCNCC3)cccc12 sits at 0.9 or higher.
## Result -1
